System: Erythrocyte
assayNotes: Hemolytic activity in human RBC incubated for 4 hrs by visual analysis
Type: toxicity, cell-based
Non-standard residues stand in square brackets, D forms with d. Residues, ends and D or L forms follow the SMILES beside them.

>  <compound>
CC[C@H](C)[C@H](NC(=O)[C@@H](NC(=O)[C@@H](NC(=O)[C@@H](CCCCN)NC(=O)[C@@H](NC(=O)[C@@H](NC(=O)[C@@H](CCCCN)NC(=O)[C@@H](NC(=O)[C@@H](NC(=O)[C@@H](CCCCN)NC(=O)[C@H](N)CCCCN)[C@@H](C)CC)[C@@H](C)CC)[C@@H](C)CC)[C@@H](C)CC)[C@@H](C)CC)[C@@H](C)CC)C(N)=O (H-[dK][dK]II[dK]II[dK]III-NH2)

>  <scaleUnit>
µg/mL

>  <operator>
=

>  <MHC>
125

$$$$
>  <compound>
CC(C)C[C@H](NC(=O)[C@H](CCCCN)NC(=O)[C@H](N)CCCCN)C(=O)N[C@@H](CC(C)C)C(=O)N[C@H](CCCCN)C(=O)N[C@H](CC(C)C)C(=O)N[C@H](CC(C)C)C(=O)N[C@@H](CCCCN)C(=O)N[C@@H](CC(C)C)C(=O)N[C@@H](CC(C)C)C(=O)N[C@H](CC(C)C)C(N)=O

>  <scaleUnit>
µg/mL

>  <operator>
=

>  <MHC>
1000

$$$$
>  <compound>
CC(C)C[C@H](NC(=O)[C@H](CC(C)C)NC(=O)[C@H](CC(C)C)NC(=O)[C@H](CCCCN)NC(=O)[C@H](CC(C)C)NC(=O)[C@@H](CC(C)C)NC(=O)[C@H](CCCCN)NC(=O)[C@@H](CC(C)C)NC(=O)[C@@H](CC(C)C)NC(=O)[C@@H](CCCCN)NC(=O)[C@@H](N)CCCCN)C(N)=O

>  <scaleUnit>
µg/mL

>  <operator>
=

>  <MHC>
250

$$$$
>  <compound>
CC(C)C[C@H](NC(=O)[C@H](CC(C)C)NC(=O)[C@H](CC(C)C)NC(=O)[C@H](CCCCN)NC(=O)[C@H](CC(C)C)NC(=O)[C@H](CC(C)C)NC(=O)[C@H](CCCCN)NC(=O)[C@H](CC(C)C)NC(=O)[C@H](CC(C)C)NC(=O)[C@@H](CCCCN)NC(=O)[C@H](N)CCCCN)C(N)=O

>  <scaleUnit>
µg/mL

>  <operator>
<

>  <MHC>
15.6

$$$$
>  <compound>
CC(C)C[C@H](NC(=O)[C@H](CCCCN)NC(=O)[C@H](CC(C)C)NC(=O)[C@H](CC(C)C)NC(=O)[C@@H](CCCCN)NC(=O)[C@H](N)CCCCN)C(=O)N[C@@H](CC(C)C)C(=O)N[C@@H](CCCCN)C(=O)N[C@@H](CC(C)C)C(=O)N[C@H](CC(C)C)C(=O)N[C@H](CC(C)C)C(N)=O

>  <scaleUnit>
µg/mL

>  <operator>
=

>  <MHC>
1000

$$$$
>  <compound>
CC(C)C[C@H](NC(=O)[C@H](CC(C)C)NC(=O)[C@H](CC(C)C)NC(=O)[C@H](CCCCN)NC(=O)[C@H](CC(C)C)NC(=O)[C@H](CC(C)C)NC(=O)[C@H](CCCCN)NC(=O)[C@H](CC(C)C)NC(=O)[C@H](CC(C)C)NC(=O)[C@H](CCCCN)NC(=O)[C@@H](N)CCCCN)C(N)=O

>  <scaleUnit>
µg/mL

>  <operator>
=

>  <MHC>
125

$$$$
>  <compound>
CC(C)C[C@H](NC(=O)[C@H](CCCCN)NC(=O)[C@H](N)CCCCN)C(=O)N[C@@H](CC(C)C)C(=O)N[C@@H](CCCCN)C(=O)N[C@@H](CC(C)C)C(=O)N[C@@H](CC(C)C)C(=O)N[C@@H](CCCCN)C(=O)N[C@@H](CC(C)C)C(=O)N[C@@H](CC(C)C)C(=O)N[C@H](CC(C)C)C(N)=O

>  <scaleUnit>
µg/mL

>  <operator>
=

>  <MHC>
62.5

$$$$

Values compiled from ChEMBL document CHEMBL5338802.
